# Test system: CDK8
# measurement.context: concentration: 1 μM, replicates: in singlicate; n = 1;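 further: KINOMEscan kinase panel screen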
# %Inh values compiled below
Could you give the number and then its unit, please?

compound: CN1CCN(Cc2ccc(NC(=O)Nc3ccc(N(C)c4ccnc(Nc5ccc(CS(C)(=O)=O)cc5)n4)cc3)cc2)CC1.Cl
%Inh: 60%
//
compound: CNc1nccc(-c2ccc3c(N)n[nH]c3c2)n1
%Inh: 32%

The compound identified as CC(C)c1nc(-c2ccc(F)c(NS(=O)(=O)c3c(F)cccc3F)c2)c(-c2ccnc(Nc3ccc(N4CCOCC4)nc3)n2)s1 registered its %Inh at 28%

The compound identified as CC(C)(C)c1ccc(C(=O)Nc2cn3cc(-n4ccnc4)ccc3n2)cc1 registered its %Inh at 5%

The compound identified as COc1cccc(CC(=O)N2CCc3cc(-c4cn(C)c5ncnc(N)c45)ccc32)c1 registered its %Inh at 96.6%

The compound identified as COc1cccc(C2=C(Nc3cccc(O)c3)C(=O)NC2=O)c1 registered its %Inh at 17%

The compound identified as COc1cc(Nc2nccc(N3CCC(NC(=O)Nc4ccc5c(c4)OCO5)C3)n2)cc(OC)c1OC (stereo not shown) registered its %Inh at 46%

====

# System: MYLK4
# measurement.context: concentration: 1 μM, replicates: in singlicate; n = 1
# %Inh values compiled below

Solved cases (2 shown):
compound: CCNC(=O)/C=C/c1n[nH]c2cc(Sc3ccccc3C(=O)NC)ccc12
%Inh: 20%
--
compound: CCNc1nccc(-c2c(-c3ccc(F)cc3)ncn2C2CCN(C)CC2)n1
%Inh: 0%

The compound identified as Cc1ccccc1CC(=O)N1CCc2cc(-c3cn(C)c4ncnc(N)c34)ccc21 [GSK2603346] registered its %Inh at 0%

The compound identified as Cl.Cl.NCC(NC(=O)c1cc(-c2cccnc2)c(-c2ccnc3[nH]ccc23)s1)c1ccccc1 (centres unmarked) [GSK1323434] registered its %Inh at 98.2%

The compound identified as Cc1ccc(NC(=O)c2cccc(N3CCCCC3)c2)cc1-c1ccc(C(=O)NCC2CC2)cc1 [GSK1917008] registered its %Inh at 9%

====

# System: SIK
# measurement.context: concentration: 1 μM, replicates: in singlicate; n = 1
# %Inh values compiled below
// return numeric value only (unit: %, not printed)

Solved cases (6 shown):
compound: COc1cccc(NC(=O)NCCNc2ccnc(Nc3ccc(F)cc3)n2)c1 [GSK1379879]
target.entity: SIK
units.symbol: %
%Inh: 0
//
compound: O=C(Nc1n[nH]c2nc(-c3ccccc3)ccc12)C1CC1 [SB-708999]
target.entity: SIK
units.symbol: %
%Inh: 28
//
compound: COc1cccc(-c2nc(-c3ccccc3)[nH]c2-c2ccncc2)c1 [SB-610250]
target.entity: SIK
units.symbol: %
%Inh: 1
//
compound: CS(=O)(=O)c1cccc(CNc2nc(Nc3ccc4c(c3)CCC(=O)N4)ncc2C(F)(F)F)c1
target.entity: SIK
units.symbol: %
%Inh: 0
//
compound: Cl.Cl.NC(CNC(=O)c1cc(Br)c(-c2ccnc3[nH]ccc23)s1)c1ccccc1 (centres unmarked) [GSK1322949]
target.entity: SIK
units.symbol: %
%Inh: 4
//
compound: CCn1cnc2c(NCc3ccccc3)ncnc21 [SKF-96418]
target.entity: SIK
units.symbol: %
%Inh: 0

The compound identified as CN(c1ccc(NC(=O)N2CCN(CCCN3CCOCC3)CC2)cc1)c1ccnc(Nc2ccc(CS(C)(=O)=O)cc2)n1.Cl [GW830899] registered its %Inh at 8

The compound identified as Nc1ncnc2scc(-c3ccc(NC(=O)Cc4cc(F)ccc4F)cc3)c12.O=C(O)C(F)(F)F [SB-731254-M] registered its %Inh at 5

====

# Test system: RSK1(Kin.Dom.1-N-terminal)
# Construct: gene RPS6KA1
# measurement.context: concentration: 1 μM, replicates: in singlicate; n = 1
# %Inh values compiled below
// return numeric value only (unit: %, not printed)

Solved cases (6 shown):
compound: COc1cccc(-c2nc(-c3ccccc3)[nH]c2-c2ccncc2)c1
target.entity: RSK1(Kin.Dom.1-N-terminal)
%Inh (%): 19
//
compound: COc1cccc(CC(=O)N2CCc3cc(-c4cn(C)c5ncnc(N)c45)ccc32)c1
target.entity: RSK1(Kin.Dom.1-N-terminal)
%Inh (%): 21
//
compound: CS(=O)(=O)c1cccc(CNc2nc(Nc3ccc4c(c3)CCC(=O)N4)ncc2C(F)(F)F)c1
target.entity: RSK1(Kin.Dom.1-N-terminal)
%Inh (%): 44
//
compound: O=C1NC(=O)C(c2ccccc2Cl)=C1Nc1cccc(Cl)c1
target.entity: RSK1(Kin.Dom.1-N-terminal)
%Inh (%): 75
//
compound: CN(c1ccc(F)c(NC(=O)c2cccc(OC(C)(C)C#N)c2Cl)c1)c1ccc2nc(NC(=O)C3CC3)sc2n1
target.entity: RSK1(Kin.Dom.1-N-terminal)
%Inh (%): 0
//
compound: CC(C)NCC(Cc1ccccc1)NC(=O)c1cc(Br)c(-c2ccnc3[nH]ccc23)s1.Cl.Cl (centres unmarked)
target.entity: RSK1(Kin.Dom.1-N-terminal)
%Inh (%): 50

Attention now turns to another entry.
Reported %Inh (RSK1(Kin.Dom.1-N-terminal)) for entry COC(=O)Nc1nc2ccc(Oc3ccc(CC(=O)Nc4cc(C(F)(F)F)ccc4F)cc3)cc2[nH]1 is 65

====

# System: NEK6
# measurement.context: concentration: 1 μM, replicates: in singlicate; n = 1
value.kind: %Inh (%)
// return numeric value only (unit: %, not printed)

Solved cases (5 shown):
compound: CNc1nccc(-c2ccc3c(N)n[nH]c3c2)n1 [GSK2206003]
units.symbol: %
%Inh: 0
//
compound: CN(c1ccc(F)c(NC(=O)c2cccc(OC(C)(C)C#N)c2Cl)c1)c1ccc2nc(NC(=O)C3CC3)sc2n1
units.symbol: %
%Inh: 0
//
compound: Cl.Cl.NC(CNC(=O)c1cc(Br)c(-c2ccnc3[nH]ccc23)s1)c1ccccc1 (centres unmarked) [GSK1322949]
units.symbol: %
%Inh: 0
//
compound: Cc1cccc(Nc2nc(NCCN)ncc2C(N)=O)c1 [GSK1292139]
units.symbol: %
%Inh: 0
//
compound: COc1cccc(CC(=O)N2CCc3cc(-c4cn(C)c5ncnc(N)c45)ccc32)c1 [GSK2608899]
units.symbol: %
%Inh: 18

The compound identified as CCNc1nccc(-c2c(-c3ccc(F)cc3)ncn2C2CCN(C)CC2)n1 registered its %Inh at 0

The compound identified as COc1cc(Nc2nccc(N3CCC(NS(=O)(=O)c4ccc(NC(C)=O)cc4)CC3)n2)cc(OC)c1OC [GSK1379825] registered its %Inh at 62

The compound identified as NCCC(NC(=O)c1cc(Br)c(-c2ccnc3[nH]ccc23)s1)c1ccccc1.O=C(O)C(F)(F)F.O=C(O)C(F)(F)F (centres unmarked) [GSK1307810] registered its %Inh at 3

The compound identified as Cc1nn2c(=O)cc(N3CCO[C@H](C)C3)nc2n1Cc1cccc(Cl)c1Cl [GSK2373693] registered its %Inh at 0

The compound identified as O=C(Nc1n[nH]c2nc(-c3cccc(O)c3)ccc12)C1CC1 [SB-711805] registered its %Inh at 0

The compound identified as CN(C)CCOc1ccc(-c2cc(-c3ccc(Cl)c(O)c3)c(-c3ccncc3)[nH]2)cc1.Cl.Cl [SB-684387] registered its %Inh at 0

====

# %Inh values compiled below
# Test system: p38-alpha
# Construct: gene MAPK14
# measurement.context: concentration: 1 μM, replicates: in singlicate; n = 1
Could you give the number and then its unit, please?

Solved cases (7 shown):
compound.smiles: Cc1ccc(O)cc1Nc1ccnc2cc(-c3ccc(CN4CCCCC4)o3)ccc12
measured.value: 15%

compound.smiles: Cn1cc(-c2cnc(N)c3c(-c4ccc5c(c4)CCN5C(=O)Cc4ccccc4)csc23)cn1
measured.value: 8%

compound.smiles: COC(=O)Nc1nc2cc(Oc3ccc(NC(=O)Nc4cccc(SC)c4)cc3)ccc2[nH]1.Cl
measured.value: 54%

compound.smiles: CSc1ccc(NC2=C(c3ccc(Cl)cc3)C(=O)NC2=O)cc1
measured.value: 0%

compound.smiles: CN(c1ccc(NC(=O)N2CCN(CCCN3CCOCC3)CC2)cc1)c1ccnc(Nc2ccc(CS(C)(=O)=O)cc2)n1.Cl
measured.value: 9%

compound.smiles: CC(=O)Nc1cn2nc(Oc3cccc(NC(=O)c4cccc(C(F)(F)F)c4)c3)ccc2n1
measured.value: 32%

compound.smiles: Nc1ncnc2scc(-c3ccc(NC(=O)Cc4cc(F)ccc4F)cc3)c12.O=C(O)C(F)(F)F
measured.value: 0%

Attention now turns to another entry.
The molecule identified as Cc1cccc(Nc2nc(NCCN)ncc2C(N)=O)c1 registered its %Inh at 45%
